Reference for the values: patent US7300926B2

# TARGET OF ASSAY: recombinant estrogen receptor α (ERα) (Homo sapiens)
# Construct: purchased Panvera, Madison, Wis
# METHOD NOTES: Competition binding assay, […] EFC Estrogen Chemiluminescence Assay
# Method: Competition binding assays were performed using an enzyme fragment complementation (EFC) method described in the […] EFC Estrogen Chemiluminescence Assay kit (Fremont, Calif.). […] The enzyme acceptor was then added for another 1.5 hours after which chemiluminescence substrate was added for another hour. Relative luminescences were determined using a Biotek FL600 plate reader (Biotek Instruments, Winooski, Vt.).
TEST READOUT: IC50

Task: Need IC50, item C[C@]12CC[C@H]3[C@@H](CCC4=CC(=O)C=C[C@@]43O)[C@@H]1CCC2=O [E1-quinol, 10β-hydroxyestra-1,4-diene-3,17-dione]
Result: > 10 µM

* * *

# TARGET OF ASSAY: recombinant estrogen receptor β (ERβ) (Homo sapiens)
# Construct: purchased Panvera, Madison, Wis
# Sequence (Q92731 whole entry): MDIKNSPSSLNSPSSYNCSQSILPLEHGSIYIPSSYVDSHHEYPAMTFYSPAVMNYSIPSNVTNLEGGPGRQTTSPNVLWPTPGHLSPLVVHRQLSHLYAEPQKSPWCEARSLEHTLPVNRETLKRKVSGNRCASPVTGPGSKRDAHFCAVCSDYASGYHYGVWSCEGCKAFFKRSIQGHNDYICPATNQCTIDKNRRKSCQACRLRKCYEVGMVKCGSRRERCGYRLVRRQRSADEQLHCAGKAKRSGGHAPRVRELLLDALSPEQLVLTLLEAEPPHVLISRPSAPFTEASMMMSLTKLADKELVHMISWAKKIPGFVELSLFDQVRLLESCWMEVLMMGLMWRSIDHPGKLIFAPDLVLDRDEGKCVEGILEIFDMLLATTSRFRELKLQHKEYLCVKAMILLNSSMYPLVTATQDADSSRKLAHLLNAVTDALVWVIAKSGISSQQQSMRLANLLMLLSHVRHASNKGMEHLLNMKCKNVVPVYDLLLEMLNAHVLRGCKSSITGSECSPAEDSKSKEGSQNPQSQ
# METHOD NOTES: Competition binding assay, […] EFC Estrogen Chemiluminescence Assay
# ASSAY CONDITIONS: ERβ; read-out: IC50
pIC50: −log10 of the molar value.
TEST READOUT: pIC50

Task: Need pIC50, item C[C@]12CC[C@H]3[C@@H](CCC4=CC(=O)C=C[C@@]43O)[C@@H]1CC[C@@H]2O [E2-quinol]
Result: < 5.00

* * *

# TARGET OF ASSAY: recombinant estrogen receptor α (ERα) (Homo sapiens)
# Construct: purchased Panvera, Madison, Wis
# Sequence (P03372 1-595): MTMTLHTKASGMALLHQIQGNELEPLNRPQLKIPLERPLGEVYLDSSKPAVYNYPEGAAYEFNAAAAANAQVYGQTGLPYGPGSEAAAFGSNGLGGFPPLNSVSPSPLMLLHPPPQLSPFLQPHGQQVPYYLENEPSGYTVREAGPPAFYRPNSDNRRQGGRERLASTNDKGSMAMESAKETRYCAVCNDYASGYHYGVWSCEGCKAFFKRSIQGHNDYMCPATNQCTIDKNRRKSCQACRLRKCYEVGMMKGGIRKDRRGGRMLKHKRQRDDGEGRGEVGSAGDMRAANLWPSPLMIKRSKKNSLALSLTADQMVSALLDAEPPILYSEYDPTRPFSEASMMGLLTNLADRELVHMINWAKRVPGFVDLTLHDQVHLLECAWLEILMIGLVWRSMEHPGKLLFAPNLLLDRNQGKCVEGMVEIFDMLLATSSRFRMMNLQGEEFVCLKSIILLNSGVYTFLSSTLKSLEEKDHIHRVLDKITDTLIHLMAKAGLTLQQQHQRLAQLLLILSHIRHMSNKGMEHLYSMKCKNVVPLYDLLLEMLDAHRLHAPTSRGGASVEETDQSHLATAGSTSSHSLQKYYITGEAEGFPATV
# METHOD NOTES: Competition binding assay, […] EFC Estrogen Chemiluminescence Assay
# ASSAY CONDITIONS: ERα; read-out: IC50
TEST READOUT: IC50

Task: Need IC50, item C[C@]12CC[C@H]3[C@@H](CCC4=CC(=O)C=C[C@@]43O)[C@@H]1CC[C@@H]2O [E2-quinol]
Result: > 10 µM
